Consider compounds characterized by their pKi with synthetic Aβ(1-40) (Homo sapiens, UniProt P05067).
Sequence (P05067 672-711): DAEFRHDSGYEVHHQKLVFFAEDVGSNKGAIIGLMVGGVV
Here pKi is given on a logarithmic scale as minus log10 of the concentration in mol/L.

Recorded results for 4 compounds are shown here.
>>> print(df.to_string())
                                   compound   val
0          CN(C)c1ccc2oc(-c3ccc(F)cc3)cc2c1  8.70
1              Nc1ccc2oc(-c3ccc(F)cc3)cc2c1  7.55
2  COc1ccc2oc(-c3ccc(F)cc3)cc2c1 [drawing 23]  8.43
3             COc1ccc2cc(-c3ccc(F)cc3)oc2c1  8.41

Now for the compound whose pKi we want.
Using the record for `Oc1ccc2oc(-c3ccc(F)cc3)cc2c1` , state its measured pKi. 7.56
